target: Yeast α-Glucosidase (Saccharomyces cerevisiae); assay: biochemical; conditions: α-Glucosidase IC50, Table 3, isolated compounds series; based on molecular weight
Sequence (P53341 whole entry): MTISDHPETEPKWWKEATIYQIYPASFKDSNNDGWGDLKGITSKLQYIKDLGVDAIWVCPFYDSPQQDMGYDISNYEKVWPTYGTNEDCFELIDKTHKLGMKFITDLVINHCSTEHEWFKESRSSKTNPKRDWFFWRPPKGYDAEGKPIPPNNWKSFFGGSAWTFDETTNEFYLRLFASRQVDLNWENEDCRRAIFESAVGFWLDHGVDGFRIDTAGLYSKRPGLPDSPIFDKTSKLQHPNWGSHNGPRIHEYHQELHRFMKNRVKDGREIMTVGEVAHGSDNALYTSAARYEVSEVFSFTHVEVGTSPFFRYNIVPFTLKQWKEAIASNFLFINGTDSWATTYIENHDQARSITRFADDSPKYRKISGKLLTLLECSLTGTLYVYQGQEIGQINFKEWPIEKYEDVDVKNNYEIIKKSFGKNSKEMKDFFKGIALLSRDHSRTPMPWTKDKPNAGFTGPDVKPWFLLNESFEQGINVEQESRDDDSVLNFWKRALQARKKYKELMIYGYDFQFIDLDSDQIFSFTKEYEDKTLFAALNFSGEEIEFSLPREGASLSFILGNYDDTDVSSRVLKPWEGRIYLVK
Below, each entry is listed alongside its reported IC50.

Cc1c(C)c2c(c(C)c1O)CCC(C)(CCCC(C)CCCC(C)CCCC(C)C)O2 (centres unmarked): < 72.7 µM

Moving on to another compound below.
For the compound CCCC/C=C/C=O , report IC50.
< 279 µM

* * *

Below: a set of entries, each annotated with reported inhibition at 250 µg/mL.
target: Yeast α-Glucosidase (Saccharomyces cerevisiae); test: biochemical; settings: read-out: α-Glucosidase Percent Inhibition (mean ± SEM)
Answer shape: numeric part, then the unit.

Examples with their reported inhibition at 250 µg/mL follow.
CCCC/C=C/C=O: 71.1%
CC(C)=CC(=O)CC(C)c1ccc(C)cc1 (stereo not shown): 51.9%
Cc1c(C)c2c(c(C)c1O)CCC(C)(CCCC(C)CCCC(C)CCCC(C)C)O2 (stereo not shown): 73.4%

Next up:
Provide Yeast α-Glucosidase (Saccharomyces cerevisiae) inhibition at 250 µg/mL reading for C[C@H]1O[C@H](O[C@H]2[C@H](O)[C@@H](O)[C@@H](O[C@H]3[C@H](O)[C@@H](O)C(O)O[C@@H]3CO)O[C@@H]2CO)[C@H](O)[C@@H](O)[C@@H]1N[C@H]1C=C(CO)[C@@H](O)[C@H](O)[C@H]1O (stereo partly shown) [Acarbose, reference compound] .
82.4%
